The values you see were collected from patent US11332440B2.

# TEST_DETAILS: MTD experiment, dose gradient by gavage
# Assay type: in vivo
# TEST_CONDITIONS: both sexes, mouse, in vivo, po; CR mice, by gavage; read-out: maximum tolerance (MTD)
MEASURED_ENDPOINT: MTD at 14 days

{"RECORD_SMILES": "O=C1C=C(OCc2ccc(F)cc2)[C@H](Cc2ccccc2)N1", "MEASURED_ENDPOINT": "MTD at 14 days", "RESULT": "≥ 250 mg/kg"}
